Item-by-item account of inhibition of aggregation
Test: inhibitors of mutant huntingtin aggregation, primary screen, imaging, exon1htt(103Q)mCFP cells, high-content imaging (AID 483);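 note: compound exposure lasted 3 days before fixation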
Settings: exon1htt(103Q)mCFP cell line, aggregate imaging, at 2 µM; active compounds read high
Activity calls are given as the source filed them.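 Rule for the calls: active = visual image review flags a hit and inhibition of aggregation exceeds 20%; inconclusive = visual hit but inhibition at or below 20%; inactive = no hit on visual image review.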

# count of solved cases: 3
compound: CC(=O)N1CCN(C(=O)COc2ccc(Br)cc2)CC1
inhibition of aggregation: -1.5% (inactive)

compound: CC(=O)Nc1cc(N2C(=O)CCC2=O)ccc1Cl
inhibition of aggregation: 12.7% (inactive)

compound: CCn1c(C(=O)N2CCC(C(=O)NCc3ccc4c(c3)OCO4)CC2)cc2sccc21
inhibition of aggregation: -30.3% (inactive)

Answer with the recorded inhibition of aggregation of `O=C(CCc1ccccc1)Nc1ccncc1` only.
7.9% (inactive)

Answer with the recorded inhibition of aggregation of `CC1CCN(C(=O)CSc2nnc(-c3ccc(S(=O)(=O)N4CCOCC4)cc3)n2C)CC1` only.
-5.5% (inactive)

These entries and their values trace back to PubChem BioAssay.
